# test.details: in vitro
# Type: cell-based
# condition.description: human
Ends that are not written are not given here.
endpoint.label: IC50 at 24 h

                                  substance  reported
0  NKVKEWIKYLKSKFK [YK8, NKVKE WIKYL KSKFK]  > 100 µM
1  NKVKEWIKYLKSLFS [YK3, NKVKE WIKYL KSLFS]     94 µM
2  H-NKVKEWIKYLKSLFK-OH [YK5, NKVKE WIKYL KSLFK]  > 100 µM
3     NKVKEWWKWLKKL [YK11, NKVKE WWKWL KKL]  > 100 µM

----------
# test.details: in vitro
# Assay type: cell-based
# condition.description: African green monkey
Ends that are not written are not given here.
endpoint.label: IC50 at 24 h (µM)

In [3]: df
Out[3]:
                                  substance  endpoint_label  relation_symbol  reported
0  NKVKEWIKYLKSKFK [YK8, NKVKE WIKYL KSKFK]    IC50 at 24 h                >       100
1     NKVKEWWKWLKKL [YK11, NKVKE WWKWL KKL]    IC50 at 24 h                =      83.7
2  H-NKVKEWIKYLKSLFK-OH [YK5, NKVKE WIKYL KSLFK]    IC50 at 24 h                >       100
3  NKVKEWIKYLKSLFS [YK3, NKVKE WIKYL KSLFS]    IC50 at 24 h                =      99.1
